Listed below: Effective concentration range, Topoisomerase I values for each entry.
studySystem: topoisomerase I (Homo sapiens)
Sequence (P11387 1-765): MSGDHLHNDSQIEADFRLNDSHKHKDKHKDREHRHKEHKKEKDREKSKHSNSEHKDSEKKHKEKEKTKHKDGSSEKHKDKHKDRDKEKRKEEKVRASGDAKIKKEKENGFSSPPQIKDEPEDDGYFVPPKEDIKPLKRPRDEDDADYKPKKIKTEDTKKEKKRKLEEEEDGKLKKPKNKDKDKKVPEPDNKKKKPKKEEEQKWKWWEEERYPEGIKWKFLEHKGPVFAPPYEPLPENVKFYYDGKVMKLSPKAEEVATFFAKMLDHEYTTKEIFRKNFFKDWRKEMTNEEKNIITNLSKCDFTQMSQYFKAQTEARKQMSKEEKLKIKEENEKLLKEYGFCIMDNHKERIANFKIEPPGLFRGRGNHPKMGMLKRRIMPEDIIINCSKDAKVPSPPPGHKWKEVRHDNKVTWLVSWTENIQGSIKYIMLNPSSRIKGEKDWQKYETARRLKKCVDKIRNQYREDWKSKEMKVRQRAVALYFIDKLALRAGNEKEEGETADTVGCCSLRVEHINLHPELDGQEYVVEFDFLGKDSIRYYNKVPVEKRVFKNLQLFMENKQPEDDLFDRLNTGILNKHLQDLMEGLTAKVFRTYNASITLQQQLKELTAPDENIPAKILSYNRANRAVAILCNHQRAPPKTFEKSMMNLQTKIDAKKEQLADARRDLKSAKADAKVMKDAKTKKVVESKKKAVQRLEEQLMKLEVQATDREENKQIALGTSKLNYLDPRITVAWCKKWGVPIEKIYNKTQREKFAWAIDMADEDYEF
assayText: Stabilisation of cleavable complexes, topoisomerase I
Format: biochemical
setupConditions: range where an increase in cleavable complexes was observed relative to controls in the absence of drug
measuredMetric: Effective concentration range, Topoisomerase I

compound: COc1cccc2c1ccc1nc3cccc(C(=O)N[C@H](C)CN(C)C)c3nc12 [Compound 78]
studySystem: topoisomerase I (Homo sapiens)
testResult: 0.03 to 1.0 µM
--
compound: CN(C)CCNc1nc2cc(O)ccc2c2c1C(=O)c1ccccc1-2 [TAS-103, reference compound]
studySystem: topoisomerase I (Homo sapiens)
testResult: 0.3 to 10.0 µM
--
compound: Br.CN(C)CCNC(=O)c1cccc2nc3ccc4c(O)cccc4c3nc12 [Compound 4]
studySystem: topoisomerase I (Homo sapiens)
testResult: 0.1 to 3.0 µM
--
compound: COc1cccc2c1ccc1nc3cccc(C(=O)NC(C)CN(C)C)c3nc12 (stereo not drawn) [Compound 35]
studySystem: topoisomerase I (Homo sapiens)
testResult: 0.03 to 1.0 µM
--
compound: COc1cccc2c1ccc1nc3cccc(C(=O)NCCN(C)C)c3nc12 [Compound 3]
studySystem: topoisomerase I (Homo sapiens)
testResult: 0.1 to 3.0 µM
--
compound: COc1cccc2c1ccc1nc3cccc(C(=O)NC(CN(C)C)C(C)O)c3nc12 (stereo not drawn) [Compound 84]
studySystem: topoisomerase I (Homo sapiens)
testResult: 0.03 to 1.0 µM
